study.system: AKT3 (Homo sapiens)
Sequence (Q9Y243 148-405 limits assumed): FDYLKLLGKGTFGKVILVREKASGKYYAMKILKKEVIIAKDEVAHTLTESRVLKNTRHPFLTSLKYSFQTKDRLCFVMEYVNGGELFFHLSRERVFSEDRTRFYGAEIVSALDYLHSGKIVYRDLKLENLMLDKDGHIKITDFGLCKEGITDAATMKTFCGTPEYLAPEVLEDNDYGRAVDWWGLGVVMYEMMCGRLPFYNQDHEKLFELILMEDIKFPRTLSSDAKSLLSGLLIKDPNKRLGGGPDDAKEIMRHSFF
protocol.description: AKT3 enzymatic inhibition assay (HTRF KinEASE)
Format: biochemical
experimental.setup: read-out: AKT3 pIC50 (converted)
Binarize IC50 at 1 nM; below is Yes, at or above is No.

Recorded results for 5 compounds are shown here.
* COc1ccc(O)c(C(=O)c2ccc(C(=O)N[C@@H]3CCCNC[C@H]3NC(=O)c3ccncc3)cc2)c1F [Roche comp-4, reference compound] | No
* CN(C)CCNC(=O)C(c1ccc(Cl)cc1)N1CCN(c2ncnc3[nH]nc(Br)c23)CC1 (single isomer, unassigned; (+)) | No
* CCN(CC)CCS(=O)(=O)N(c1ccc(Cl)cc1)C1CCN(c2ncnc3[nH]nc(Br)c23)CC1 | Yes
* CN(C)CCNC(c1ccc(Cl)cc1)C1CCN(c2ncnc3[nH]nc(C(F)(F)F)c23)CC1 (single isomer, unassigned; (+)) [Example 12a] | Yes
* CN(C)CC(c1ccc(Cl)cc1)C1CCN(c2ncnc3[nH]nc(C(F)(F)F)c23)CC1 (centres unmarked) | Yes

Q. Here's an entry: CN(C)CC(c1ccc(Cl)cc1)N1CCN(c2ncnc3[nH]nc(C(F)(F)F)c23)CC1 (centres unmarked) . Is its IC50 below 1 nM?
A. No

Q. Here's an entry: CN(C)CCCC(O)(c1ccc(Cl)cc1)C1CCN(c2ncnc3[nH]nc(Br)c23)CC1 (centres unmarked) . Is its IC50 below 1 nM?
A. Yes

Q. Here's an entry: CN(C)CC(c1ccc(Cl)cc1)C1CCN(c2ncnc3[nH]nc(Br)c23)CC1 (centres unmarked) . Is its IC50 below 1 nM?
A. No

###

study.system: DNA-PK (Homo sapiens)
protocol.description: DNA-PK enzymatic inhibition assay (HTRF KinEASE)
Type: biochemical
experimental.setup: read-out: DNA-PK pIC50 (converted)
Reported log10 of IC50 values follow for various compounds
Units before log transform: nM; reported quantity: IC50; transform: log10.

Below: 5 compounds and their reported log10 of IC50.
• CN(C)CC(c1ccc(Cl)cc1)N1CCN(c2ncnc3[nH]nc(Br)c23)CC1 (centres unmarked) = -0.62
• CN(C)CCNC(=O)C(c1ccc(Cl)cc1)N1CCN(c2ncnc3[nH]nc(Br)c23)CC1 (single isomer, unassigned; (+)) = 1.02
• CCN(CC)CCS(=O)(=O)N(c1ccc(Cl)cc1)C1CCN(c2ncnc3[nH]nc(Br)c23)CC1 = 0.79
• CN(C)CCNC(c1ccc(Cl)cc1)C1CCN(c2ncnc3[nH]nc(Br)c23)CC1 (centres unmarked) = 0.29
• CN(C)C(=O)C(c1ccc(Cl)cc1)N1CCN(c2ncnc3[nH]nc(Br)c23)CC1 (centres unmarked) = 2.15

compound CN(C)CCCCC(O)(c1ccc(Cl)cc1)C1CCN(c2ncnc3[nH]nc(Br)c23)CC1 (centres unmarked) , log10 of IC50 observed: 0.67

compound `CN(C)CCCC(=C1CCN(c2ncnc3[nH]nc(C(F)(F)F)c23)CC1)c1ccc(Cl)cc1` , log10 of IC50 observed: 1.08

compound CCn1c(-c2nonc2N)nc2c(C#CC(C)(C)O)ncc(OC[C@H]3CCCNC3)c21 [GSK-3g, reference compound] , log10 of IC50 observed: 1.02

compound CN(C)CCOC(c1ccc(Cl)cc1)C1CCN(c2ncnc3[nH]nc(Br)c23)CC1 (centres unmarked) , log10 of IC50 observed: 0.59

compound CN(C)CCNC(c1ccc(Cl)cc1)C1CCN(c2ncnc3[nH]nc(C(F)(F)F)c23)CC1 (single isomer, unassigned; (+)) [Example 12a] , log10 of IC50 observed: -0.80

compound CN(C)CC(c1ccc(Cl)cc1)C1CCN(c2ncnc3[nH]nc(Br)c23)CC1 (centres unmarked) , log10 of IC50 observed: 0.44

compound CN(C)CCNC(c1ccc(Cl)cc1)C1CCN(c2ncnc3[nH]nc(C(F)(F)F)c23)CC1 (single isomer, unassigned; (-)) [Example 12b] , log10 of IC50 observed: 0.73

compound CN(C)CC(c1ccc(Cl)cc1)N1CCN(c2ncnc3[nH]nc(C(F)(F)F)c23)CC1 (centres unmarked) , log10 of IC50 observed: 0.27

compound CN(C)CCCC(O)(c1ccc(Cl)cc1)C1CCN(c2ncnc3[nH]nc(Br)c23)CC1 (centres unmarked) , log10 of IC50 observed: 0.54

compound Cc1n[nH]c2ncnc(N3CCC(C(OCCN(C)C)c4ccc(Cl)cc4)CC3)c12 (centres unmarked) , log10 of IC50 observed: 0.85

compound CN(C)CC(c1ccc(Cl)cc1)C1CCN(c2ncnc3[nH]nc(C(F)(F)F)c23)CC1 (centres unmarked) , log10 of IC50 observed: 0.23

compound COc1ccc(O)c(C(=O)c2ccc(C(=O)N[C@@H]3CCCNC[C@H]3NC(=O)c3ccncc3)cc2)c1F [Roche comp-4, reference compound] , log10 of IC50 observed: 0.93

src = patent US20230064189A1
